# system: Cyclin-dependent kinase 2/cyclin A (Homo sapiens) (UniProt P24941+P20248+P78396)
# protocol-description: Inhibition of human Cyclin-dependent kinase 2 cyclin A3 at 10 uM
# Assay type: protein-complex assay
measured-quantity: inhibition (%)
# output: bare number, implied unit %

The cases that follow already have their inhibition on record.
Nc1nc(N)c(/C=N/OCc2ccccc2)c(OCC2CCCCC2)n1 ... 3
Nc1nc(NC(=O)OCc2ccccc2)c(N=O)c(OCC2CCCCC2)n1 ... 11

// next item, inhibition requested
Enquiry: Output measured inhibition for this item: Nc1cc(OCC2CCCCC2)nc(N)n1
Return: 7
